biological target: CD4-gp140 complex (HIV 89.6 gp140 bound to sCD4) (HIV 89.6 (Clade B) primary isolate), Q73372; experiment: SPR, peptide over gp140 captured on immobilised CD4
OBSERVED_PROPERTY: pKd
Answers are plain numbers, as −log10 of the molar value.

Supply measured pKd of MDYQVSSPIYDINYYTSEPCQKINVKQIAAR (modifications not checked) [CCR5-D1 peptide] in your reply.
6.55
